- System: cancer cells on SISgel or plastic
- ASSAY INFO: Activity of leads and analogs on cancer cells grown on plastic vs SISgel (cell line not stated)
- Type: cell-based
- PARTICULARS: ratio IC50-p/IC50-S
Reported SR by item:

Some solved entries appear below for comparison.
O=S(=O)([O-])c1ccc2c(N=Nc3c(O)cc(S(=O)(=O)[O-])c4ccccc34)c(O)c(S(=O)(=O)[O-])cc2c1.[Na+].[Na+].[Na+] [HydroxyNapthol Blue]    2.1
Cc1ccc(N=Nc2c(O)c(S(=O)(=O)[O-])cc3cc(S(=O)(=O)[O-])ccc23)c(C)c1.[Na+].[Na+] [Acid Red 26]    0.26
O=S(=O)(O)c1ccc2c(N=Nc3c(O)c(S(=O)(=O)O)cc4cc(S(=O)(=O)O)ccc34)c(O)c(S(=O)(=O)O)cc2c1 [2-2-dihydroxy-1-1-azo-naphthalene-3-3-6]    1.9
O=S(=O)([O-])c1cc(O)c2c(O)c(N=Nc3cccc4ccccc34)c(S(=O)(=O)[O-])cc2c1.[Na+].[Na+] [DT320]    9.0
CCN(CC)c1ccc(C(=C2C=CC(=[N+](CC)CC)C=C2)c2ccc(S(=O)(=O)[O-])cc2S(=O)(=O)[O-])cc1.[Na+] [Acid Blue 1]    1.6

Lab note: cancer cells on SISgel or plastic assay, enter SR for Nc1cc(S(=O)(=O)[O-])cc2cc(S(=O)(=O)[O-])c(N=Nc3cc([N+](=O)[O-])ccc3O)c(O)c12.[Na+].[Na+] [Palatine Chrome Green] here
1.1

Lab note: cancer cells on SISgel or plastic assay, enter SR for Cc1ccc(C(=O)Nc2ccc(S(=O)(=O)O)c3cc(S(=O)(=O)O)cc(S(=O)(=O)O)c23)cc1NC(=O)c1cccc(NC(=O)Nc2cccc(C(=O)Nc3cc(C(=O)Nc4ccc(S(=O)(=O)O)c5cc(S(=O)(=O)O)cc(S(=O)(=O)O)c45)ccc3C)c2)c1 [Suramin, reference compound] here
1.4

Lab note: cancer cells on SISgel or plastic assay, enter SR for CC(=O)Nc1ccc(N=Nc2c(N)ccc3cc(S(=O)(=O)O)cc(O)c23)c(S(=O)(=O)O)c1.N.N [Acid Red 37] here
1.7

Lab note: cancer cells on SISgel or plastic assay, enter SR for Cc1ccc(NC(=O)c2cc3ccccc3c(N=Nc3cc(S(=O)(=O)[O-])ccc3O)c2O)c(C)c1.[Na+] [Xylidyl Blue 1] here
2.4

Lab note: cancer cells on SISgel or plastic assay, enter SR for CCN(Cc1cccc(S(=O)(=O)[O-])c1)c1ccc(C(=C2C=CC(=[N+](CC)Cc3cccc(S(=O)(=O)[O-])c3)C=C2)c2ccccc2Cl)cc1.[Na+] [Alizarin Green] here
0.67

Lab note: cancer cells on SISgel or plastic assay, enter SR for O=S(=O)(O)c1ccc(N=Nc2ccc3c(S(=O)(=O)O)cccc3c2O)c2ccccc12.[Na+] [Chromotrope F4B] here
1.8

Lab note: cancer cells on SISgel or plastic assay, enter SR for CCN(Cc1cccc(S(=O)(=O)[O-])c1)c1ccc(C(=C2C=CC(=[N+](C)C)C=C2)c2ccc(N(CC)Cc3cccc(S(=O)(=O)O)c3)cc2)cc1.[Na] [Acid Violet 49] here
0.75

* * *

Reported MTD by item:
- ASSAY INFO: in vivo
- PARTICULARS: BALB/c, mouse, ip
Value expressed in mg/kg; do not type the unit.

CC(=O)O[C@@]12CO[C@@H]1C[C@H](O)[C@@]1(C)C(=O)[C@H](O)C3=C(C)[C@@H](OC(=O)[C@H](O)[C@@H](NC(=O)OC(C)(C)C)c4ccccc4)C[C@@](O)([C@@H](OC(=O)c4ccccc4)[C@H]21)C3(C)C [docetaxel]    15

State its MTD for this compound: COc1cccc2c1C(=O)c1c(O)c3c(c(O)c1C2=O)C[C@@](O)(C(=O)CO)C[C@@H]3O[C@H]1C[C@H](N)[C@H](O)[C@H](C)O1 [Doxorubicin, reference compound]
1

Where do the numbers come from? From paper PMC4434572.
